method_description: Binding affinity to wild type TTR/Amyloid beta (1 to 40 residues) binary complex (unknown origin) assessed as complex dissociation constant by isothermal titration calorimetry
Design: species or system Homo sapiens
# key: entry, value: Kd
// note: answer is a bare numeric in nM

The examples below pair each entry with its known result.
>>> result_value("O=C(O)c1cc(/N=N/c2ccc(O)c(C(=O)O)c2)ccc1O")
810
>>> result_value("O=c1cc(-c2ccc(O)c(O)c2)oc2cc(O)cc(O)c12")
1520
>>> result_value("O=C(O)c1ccccc1Nc1cccc(C(F)(F)F)c1")
2340

# ---- query compound ----
Item CC1=C(CC(=O)O)c2cc(F)ccc2/C1=C\c1ccc([S+](C)[O-])cc1 (centres undefined) has what recorded Kd?
3420

====

Organism: Homo sapiens
method_description: Binding affinity to wild type TTR/Amyloid beta (1 to 40 residues) binary complex (unknown origin) assessed as Gibbs free energy change for binary complex by isothermal titration calorimetry
# key: entry, value: deltaG
// note: answer is a bare numeric in kcal/mol

The examples below pair each entry with its known result.
>>> result_value("CC1=C(CC(=O)O)c2cc(F)ccc2/C1=C\\c1ccc([S+](C)[O-])cc1 (stereo not given) [SULINDAC]")
-8.15
>>> result_value("O=C(O)c1cc(/N=N/c2ccc(O)c(C(=O)O)c2)ccc1O [OLSALAZINE]")
-8.7
>>> result_value("O=C(O)c1cc(-c2ccc(F)cc2F)cc(I)c1O")
-7.67
>>> result_value("O=C(O)c1ccccc1Nc1cccc(C(F)(F)F)c1 [FLUFENAMIC ACID]")
-8.28

# ---- query compound ----
Item O=c1cc(-c2ccc(O)c(O)c2)oc2cc(O)cc(O)c12 [LUTEOLIN] has what recorded deltaG?
-7.93

====

Species on record: Homo sapiens
method_description: Binding affinity to wild type TTR/Amyloid beta (1 to 40 residues) binary complex (unknown origin) assessed as change in enthalpy binary by isothermal titration calorimetry
measurement_name: deltaH (kcal/mol)
// note: answer is a bare numeric in kcal/mol

The examples below pair each entry with its known result.
>>> result_value("O=C(O)c1cc(/N=N/c2ccc(O)c(C(=O)O)c2)ccc1O")
-8.72
>>> result_value("O=c1cc(-c2ccc(O)c(O)c2)oc2cc(O)cc(O)c12")
-0.53
>>> result_value("O=C(O)c1ccccc1Nc1cccc(C(F)(F)F)c1")
-3.66
>>> result_value("CC1=C(CC(=O)O)c2cc(F)ccc2/C1=C\\c1ccc([S+](C)[O-])cc1 (stereo not given)")
-3.23

# ---- query compound ----
Item O=C(O)c1cc(-c2ccc(F)cc2F)cc(I)c1O has what recorded deltaH?
-1.54
